Where do the numbers come from? From ChEMBL document CHEMBL1201862.

test system: SF-295; assay: NCI tumour cell line growth inhibition, 48 h
Calls of active or inactive are those of the source. No stated cut-off is given here; in the data, active = GI50 up to about 1.1 µM and inactive = higher.
measurement_name: GI50

Example results:
CC1=CC(=O)NP(=O)(Oc2ccc(C)cc2)N1 (stereo not given)	> 100 µM (inactive)
CC(C)OC(=O)C1Cc2c([nH]c3ccccc23)C(c2ccccc2)N1 (stereo not given)	> 100 µM (inactive)
C=C(C)C1CC=C(C(=O)O)CC1 (stereo not given)	1090 µM (inactive)

Input: State its GI50 for this molecule: "Cn1c(=O)c2nc(COCc3nc4c(=O)n(C)c(=O)n(C)c4[nH]3)[nH]c2n(C)c1=O"
Output: > 100 µM (inactive)

Input: Provide GI50 value for the following molecule: "COc1cc(/C=N/NC(=O)c2c(Cl)c(Cl)c(Cl)c(Cl)c2-c2nc3cc(C(=O)c4ccccc4)ccc3[nH]2)ccc1O"
Output: 29.9 µM (inactive)

----------
tested on: OVCAR-3; assay: NCI tumour cell line growth inhibition, 48 h
Activity calls are given as the source filed them. Cut-off read from the data, not from the text of the source: active = GI50 up to about 1.1 µM and inactive = higher.
Could you please pick one outcome from this set? TRUE for active, FALSE for inactive

COC(=O)c1c(OC(C)=O)ccc2c1c1c(n2C)C(=O)c2ccccc2C1=O	FALSE
O=C1Nc2cccc3cc(NCC(O)CCl)cc1c23 (stereo unspecified)	FALSE
COc1cccc(OC)c1/C=C1\OC(=O)c2cccc(OC)c21	FALSE
O=C(Nc1ccccc1)n1cc(-c2ccccn2)c(N2CCOCC2)n1	FALSE

Input: State the result this test recorded for "C/C(=C/C(=O)Nc1ccccc1)Nc1onc(C)c1C" .
Output: FALSE

Input: Dear colleague, could you share the recorded outcome for C/C=C/[C@H]1O[C@@](O)([C@@H](C)[C@H](O)[C@H](C)[C@H]2OC(=O)/C(OC)=C/C(C)=C/[C@@H](C)[C@@H](O)[C@@H](CC)[C@@H](O)[C@H](C)C/C(C)=C/C=C/[C@@H]2OC)C[C@H](OC2CC(O)C(O)C(C)O2)[C@@H]1C (stereo partly specified) when you have a moment?
Output: TRUE

Input: What classification did N#CC(c1ccccn1)c1nc2ccccc2[nH]1 (stereo unspecified) end up with in this test?
Output: FALSE

Input: What outcome does the record of this test show for CC(C)=CCc1c(O)cc(O)c2c1OC(c1ccc(O)cc1)C(O)C2=O (stereo unspecified) ?
Output: FALSE

Input: Could you check what this test reported for CCCC(=O)OCC1OC(n2cc(F)c(=O)[nH]c2=O)CC1O (stereo unspecified) ?
Output: FALSE

----------
system: OVCAR-8; assay: NCI tumour cell line growth inhibition, 48 h
The source made the active and inactive calls. Cut-off read from the data, not from the text of the source: active = GI50 up to about 1.1 µM and inactive = higher.
measurement_name: GI50

Please review the following examples before continuing.
COc1ccc2c(c1OC)OC[C@@H](C1=CC(=O)C=C(O)C1=O)C2	19.1 µM (inactive)
COc1ccc2nc(NCN3C(=O)c4ccccc4C3=O)sc2c1	> 100 µM (inactive)
N#CC1=C(N)OC2=C(CSc3ccccc32)C1c1ccc(Br)cc1 (stereo not given)	2.75 µM (inactive)
O=c1[nH]c(=O)n([C@@H]2C[C@H](CO)[C@H](O)C2)cc1/C=C/Br	> 100 µM (inactive)
O/N=C1/CC2(N3CCOCC3)C3CC/C(=N\O)C2CC1(Cc1ccccc1)C3 (stereo not given)	> 100 µM (inactive)

Now let's try a different one.
Input: Look up and report GI50, with OVCAR-8 as system, for CC(=O)OC1CC2OC(Cc3ccccc32)O1 (stereo not given)
Output: > 100 µM (inactive)

----------
test system: MDA-MB-231; assay: NCI tumour cell line growth inhibition, 48 h
Active and inactive are the calls of the source. Cut-off read from the data, not from the text of the source: active = GI50 up to about 1.1 µM and inactive = higher.
Some molecules, each annotated with its measured GI50.

Look over these answered cases.
N#CC1=C(N)OC2=C(CSc3ccccc32)C1c1ccc(Br)cc1 (stereo not given)	11.7 µM (inactive)
C/C1=C\CC/C(C)=C/C=C(/C(C)C)CC/C(C(=O)O)=C/CC1	56.5 µM (inactive)
COc1cc(/C=N/NC(=O)c2c(Cl)c(Cl)c(Cl)c(Cl)c2-c2nc3cc(C(=O)c4ccccc4)ccc3[nH]2)ccc1O	26.8 µM (inactive)
Cc1cc2nc(N3C(=O)/C(=C/c4ccc(Oc5ccccc5)cc4)N=C3c3ccccc3)sc2cc1C	> 100 µM (inactive)
CCOC(=O)c1c2ccccc2n2c(=O)n(C)nnc12	> 100 µM (inactive)

Input: Report GI50 for "O=C1NC(=O)c2ccc([N+](=O)[O-])c3cccc1c23"
Output: 17.1 µM (inactive)

Input: Consider the molecule "Nc1nc(N)nc(CCCCc2nc(N)nc(N)n2)n1" . State its measured GI50.
Output: > 100 µM (inactive)

Input: Please give measured GI50 of the following entry: "O=C(O)c1cc([N+](=O)[O-])cc2c(=O)c3cnccc3[nH]c12"
Output: > 100 µM (inactive)

Input: For the molecule "c1ccc(-c2cc3[nH]c4ccccc4[nH]c-3cc(-c3ccccc3)nn2)cc1" , report GI50.
Output: 80 µM (inactive)

Input: Answer with reported GI50 of "O=c1[nH]c(NCc2ccncc2)nc2[nH]cnc12"
Output: > 100 µM (inactive)

----------
This listing pairs molecules with measured GI50.
tested on: OVCAR-3; experiment: NCI tumour cell line growth inhibition, 48 h
Activity calls are given as the source filed them. No stated cut-off is given here; in the data, active = GI50 up to about 1.1 µM and inactive = higher.

Worked cases, GI50 given:
Cc1ccc(NC(=O)NC23CC4CC(CC(F)(C4)C2)C3)cc1	> 100 µM (inactive)
COc1cc(OC)c2c(c1)OC(c1cccnc1)C(c1ccccc1)C2=O (stereo unspecified)	86.3 µM (inactive)
O=c1[nH]c(NCc2ccncc2)nc2[nH]cnc12	> 100 µM (inactive)
CC(C)NC(=O)OCCN=c1c2ccccc2ccc2ccccc12	34.4 µM (inactive)
O=C1NC2OC(C(O)CO)C(O)C2O1 (stereo unspecified)	> 100 µM (inactive)

Input: Tell me GI50 reported for Cc1ccc(-c2c3c(n(C4OC(CO)C(O)C(O)C4O)c(=S)c2C#N)CC(C)(C)CC3=O)cc1 (stereo unspecified)
Output: > 100 µM (inactive)

----------
test system: MDA-MB-231; experiment: NCI tumour cell line growth inhibition, 48 h
Calls of active or inactive are those of the source. No stated cut-off is given here; in the data, active = GI50 up to about 1.1 µM and inactive = higher.
measurement_name: GI50

Reference set (6 entries):
COc1cc(OC)c2c(c1)OC(c1cccnc1)C(c1ccccc1)C2=O (configuration not stated)	> 100 µM (inactive)
CC(C)(C)C(=O)/C=C(\OB(F)F)C(C)(C)C	> 100 µM (inactive)
O=[N+]([O-])c1c2nc3n(c2cc2c1nc1n2CCC1)CCC3	> 100 µM (inactive)
Cc1cc(S(=O)(=O)/N=C(\NN)NCC(=O)NN)c(S)cc1Cl	> 10 µM (inactive)
CN(C)CC(C)(C)CN1c2ccccc2Sc2ccccc21	12 µM (inactive)
CC1(C)OC(=O)N(c2ccccc2)C12C=Cc1cccc([N+](=O)[O-])c1O2 (configuration not stated)	> 100 µM (inactive)

Input: Answer with the recorded GI50 of "CCCCC/C(=N\c1[nH]nnc1C(N)=O)OCC" only.
Output: > 100 µM (inactive)

Input: For "Cc1ccc(/C=C2\CNC/C(=C\c3ccc(C)cc3)C2=O)cc1" , write its GI50.
Output: 2.91 µM (inactive)

Input: For the molecule "CCOP(=O)(OCC)[C@H]1OC(C)(C)O[C@@H]1CO" , report GI50.
Output: > 100 µM (inactive)

Input: Give the reported value of GI50 for this record: "CCOC(=O)C1=C(C)NC(C)=C(C(=O)OCC)C1c1ccc(C)cc1"
Output: 29.4 µM (inactive)

Input: Write down GI50 measured for item "Cc1cccc2c1[nH]c1[nH]c(=O)[nH]c(=O)c12"
Output: > 100 µM (inactive)

Input: Complete the entry with GI50 for "COc1cccc(OC)c1/C=C1\OC(=O)c2cccc(OC)c21"
Output: 12.8 µM (inactive)

----------
system: LOX IMVI; assay: NCI tumour cell line growth inhibition, 48 h
The source made the active and inactive calls. No stated cut-off is given here; in the data, active = GI50 up to about 1.1 µM and inactive = higher.
Recorded GI50, one value per entry.

The following compounds have reported results that may help.
COC(=O)C(Nc1ccc(OC)cc1)c1ccccc1 (stereo not given)	> 100 µM (inactive)
O=C(O)C1(Cc2ccc3c(c2)CCC3)Cc2ccccc2C1	87.1 µM (inactive)
O=C1OC(c2ccccc2)=N/C1=C\c1cccc(F)c1	22.2 µM (inactive)
O=C[C@@H](CO)O[C@H](C=O)n1cnc2c(=O)nc[nH]c21	86.9 µM (inactive)

The record that follows has no GI50 shown yet.
Input: Using known records, supply GI50 for "S=C1Cc2c(-c3ccccc3)cc(-c3ccc(Cl)cc3)nc2-c2ccccc2N1"
Output: 3.41 µM (inactive)

----------
test system: PC-3; assay: NCI tumour cell line growth inhibition, 48 h
Activity calls are given as the source filed them. Cut-off read from the data, not from the text of the source: active = GI50 up to about 1.1 µM and inactive = higher.
One label from this list, please: true (1) (active), false (0) (inactive)

Cc1cc(C)c(S(=O)(=O)N(CCCCCCN)OCCCON(CCCCCCN)S(=O)(=O)c2c(C)cc(C)cc2C)c(C)c1	false (0)
CCOC(=O)c1c2ccccc2n2c(=O)n(C)nnc12	false (0)
O=C1CC(c2ccc(Cl)cc2)Oc2ccccc21 (stereo not drawn)	false (0)
CC1=CSC(O)(c2ccc(Cl)cc2)c2noc(=O)n21 (stereo not drawn)	false (0)
CN(C)CC(C)(C)CN1c2ccccc2Sc2ccccc21	false (0)
c1ccc2c(c1)nc1ccccn12	false (0)
CC1=C(C(=O)Nc2cccc3c2C(=O)NC3=O)CC(C(=O)Nc2cccc3c2C(=O)NC3=O)=C(C)N1	false (0)
O=c1[nH]c(=O)n(C2OC(CO)C(O)C2O)c2c1CCCC2 (stereo not drawn)	false (0)

Input: Hi team, can someone confirm the assay call for "COc1cccc(OC)c1/C=C1\OC(=O)c2cccc(OC)c21" ?
Output: false (0)

Input: Hi team, can someone confirm the assay call for "COc1ccc2nc(NCN3C(=O)c4ccccc4C3=O)sc2c1" ?
Output: false (0)
